Reported values of Drug Level in Kidney 4 h for individual entries
Assay: Kidney drug level after subcutaneous dose in mouse
Assay type: in vivo
Conditions: mouse, in vivo, sc, 17.2 mg/kg
Where a SMILES comes first, the peptide text is derived from it. Bridges are numbered along the chain shown (N, C = ends). [ ]: non-standard residue; d: D form. The star is where a group is joined. X17 = CC(C)C[C@@H]1CNC[C@@H](C(=O)*)C1; X1 = NC[C@@H](CC(=O)*)c1cccc(Cl)c1; Dab = NCC[C@H](N)C(=O)O; Dap = NC[C@H](N)C(=O)O
measure name: Drug Level in Kidney 4 h

molecule | measured
CC(C)C[C@@H]1NC(=O)[C@@H](Cc2ccccc2)NC(=O)[C@H](CCN)NC(=O)[C@@H](NC(=O)[C@H](CN)NC(=O)[C@@H](NC(=O)C[C@H](CN)c2cccc(Cl)c2)[C@@H](C)O)CCNC(=O)[C@H]([C@@H](C)O)NC(=O)[C@H](CCN)NC(=O)[C@H](CCN)NC1=O [Example 5] (X1-T[Dap][Dab][Dab][dF]L[Dab][Dab]T; lactam 3-C) | 170 µg/g kidney
CC(C)C[C@@H]1CNC[C@@H](C(=O)N[C@H](C(=O)N[C@@H](CN)C(=O)N[C@H]2CCNC(=O)[C@H]([C@@H](C)O)NC(=O)[C@H](CCN)NC(=O)[C@H](CCN)NC(=O)[C@H](CC(C)C)NC(=O)[C@@H](CC(C)C)NC(=O)[C@H](CCN)NC2=O)[C@@H](C)O)C1 [Reference Example D77, reference compound] (X17-T[Dap][Dab][Dab][dL]L[Dab][Dab]T; lactam 3-C) | 516 µg/g kidney

---

Tested on: K. pneumoniae ATCC 13822
Format: cell-based
Conditions: ATCC 13822
Where a SMILES comes first, the peptide text is derived from it. Bridges are numbered along the chain shown (N, C = ends). [ ]: non-standard residue; d: D form. The star is where a group is joined. X2 = NC[C@@H](CC(=O)*)c1cccc(-c2ccccc2)c1; X22 = CC(C)Cc1cccc([C@H](CN)CC(=O)*)c1; X6 = CC(C)Cc1cccc([C@@H](CN)CC(=O)*)c1; X3 = CC(C)c1cccc([C@@H](CN)CC(=O)*)c1; X16 = NC[C@H](CC(=O)*)Cc1cccc(Cl)c1; X8 = NC[C@@H](CC(=O)*)Cc1cccc(Cl)c1; X10 = Cc1cccc([C@@H](CN)CC(=O)*)c1; Dab = NCC[C@H](N)C(=O)O; Abu = CC[C@H](N)C(=O)O; Dap = NC[C@H](N)C(=O)O

compound | uom | MIC K. pneumoniae ATCC 13822
Cc1cccc([C@@H](CN)CC(=O)N[C@H](C(=O)N[C@@H](CN)C(=O)N[C@H]2CCNC(=O)[C@H]([C@@H](C)O)NC(=O)[C@H](CCN)NC(=O)[C@H](CCN)NC(=O)[C@H](CC(C)C)NC(=O)[C@@H](Cc3ccccc3)NC(=O)[C@H](CCN)NC2=O)[C@@H](C)O)c1 [Example 21] (X10-T[Dap][Dab][Dab][dF]L[Dab][Dab]T; lactam 3-C) | µg/mL | 0.25
CC(C)C[C@@H]1NC(=O)[C@@H](CC(C)C)NC(=O)[C@H](CCN)NC(=O)[C@@H](NC(=O)[C@H](CN)NC(=O)[C@@H](NC(=O)C[C@H](CN)Cc2cccc(Cl)c2)[C@@H](C)O)CCNC(=O)[C@H]([C@@H](C)O)NC(=O)[C@H](CCN)NC(=O)[C@H](CCN)NC1=O [Example 14] (X8-T[Dap][Dab][Dab][dL]L[Dab][Dab]T; lactam 3-C) | µg/mL | 0.5
CC(C)C[C@@H]1NC(=O)[C@@H](CC(C)C)NC(=O)[C@H](CCN)NC(=O)[C@@H](NC(=O)[C@H](CN)NC(=O)[C@@H](NC(=O)C[C@@H](CN)Cc2cccc(Cl)c2)[C@@H](C)O)CCNC(=O)[C@H]([C@@H](C)O)NC(=O)[C@H](CCN)NC(=O)[C@H](CCN)NC1=O [Example 13] (X16-T[Dap][Dab][Dab][dL]L[Dab][Dab]T; lactam 3-C) | µg/mL | 0.5
CC[C@@H]1NC(=O)[C@@H](CC(C)C)NC(=O)[C@H](CCN)NC(=O)[C@@H](NC(=O)[C@H](CN)NC(=O)[C@@H](NC(=O)C[C@H](CN)c2cccc(CC(C)C)c2)[C@@H](C)O)CCNC(=O)[C@H]([C@@H](C)O)NC(=O)[C@H](CCN)NC(=O)[C@H](CCN)NC1=O [Example 26] (X6-T[Dap][Dab][Dab][dL][Abu][Dab][Dab]T; lactam 3-C) | µg/mL | 0.5
CC[C@@H]1NC(=O)[C@@H](CC(C)C)NC(=O)[C@H](CCN)NC(=O)[C@@H](NC(=O)[C@H](CN)NC(=O)[C@@H](NC(=O)C[C@H](CN)c2cccc(-c3ccccc3)c2)[C@@H](C)O)CCNC(=O)[C@H]([C@@H](C)O)NC(=O)[C@H](CCN)NC(=O)[C@H](CCN)NC1=O [Example 24] (X2-T[Dap][Dab][Dab][dL][Abu][Dab][Dab]T; lactam 3-C) | µg/mL | 0.25
CC(C)C[C@H]1NC(=O)[C@H](CCN)NC(=O)[C@@H](NC(=O)[C@H](CN)NC(=O)[C@@H](NC(=O)C[C@H](CN)c2cccc(C(C)C)c2)[C@@H](C)O)CCNC(=O)[C@H]([C@@H](C)O)NC(=O)[C@H](CCN)NC(=O)[C@H](CCN)NC(=O)[C@H]([C@@H](C)O)NC1=O [Example 19] (X3-T[Dap][Dab][Dab][dL]T[Dab][Dab]T; lactam 3-C) | µg/mL | 0.25
CC[C@@H]1NC(=O)[C@@H](CC(C)C)NC(=O)[C@H](CCN)NC(=O)[C@@H](NC(=O)[C@H](CN)NC(=O)[C@@H](NC(=O)C[C@@H](CN)c2cccc(CC(C)C)c2)[C@@H](C)O)CCNC(=O)[C@H]([C@@H](C)O)NC(=O)[C@H](CCN)NC(=O)[C@H](CCN)NC1=O [Example 27] (X22-T[Dap][Dab][Dab][dL][Abu][Dab][Dab]T; lactam 3-C) | µg/mL | 0.25
